// data source = patent US12077503B2

// reported Plant response rating, Corn per item
- System: corn (Zea mays)
- assayProcedure: Test A postemergence
- Format: in vivo
- runParameters: 125 g ai/ha, postemergence; visual rating after approx. 10 d, 0 to 100 scale (0 no effect, 100 complete control)
metricName: Plant response rating, Corn

compound | metricName | reported
O=C1NCC(c2ccc(OC(F)F)cc2)C1C(=O)Nc1cccc(F)c1F (stereo not shown) [Compound 561] | Plant response rating, Corn | 10
CN1CC(c2cc(F)cc(F)c2)C(C(=O)Nc2ccc(F)cc2F)C1=O (stereo not shown) [Compound 645] | Plant response rating, Corn | 20
CN1CC(c2cc(F)cc(F)c2)C(C(=O)Nc2cccc(F)c2F)C1=O (stereo not shown) [Compound 644] | Plant response rating, Corn | 70
CN1CC(c2ccc(Br)cc2)C(C(=O)Nc2cccc(F)c2F)C1=O (stereo not shown) [Compound 564] | Plant response rating, Corn | 70

====

- Tested on: Galium (catchweed bedstraw, Galium aparine)
- assayProcedure: Test A postemergence
- Type: in vivo
- runParameters: Galium, post-emergence, 240 h, 125 g ai/ha, postemergence, visual injury rating after approximately 10 d; read-out: Galium plant response rating (0 to 100 scale, 0 no effect, 100 complete control)
Measured pest or weed control at 125 g/ha, listed per entry for reference.

molecule | pest or weed control at 125 g/ha, %
Cc1c(F)ccc([C@H]2CNC(=O)[C@@H]2C(=O)Nc2ccc(F)c(F)c2F)c1F [Compound 830] | 30
CSc1ccccc1NC(=O)[C@H]1C(=O)N(C)C[C@@H]1c1cc(C)cc(F)c1 [Compound 851] | 30
COc1cc([C@H]2CN(C)C(=O)[C@@H]2C(=O)Nc2ccccc2F)cc(C(F)(F)F)c1 [Compound 855] | 0
CN1C[C@H](c2cccc(F)c2)[C@@H](C(=O)Nc2ccccc2S(C)(=O)=O)C1=O [Compound 824] | 40
COc1c(F)ccc([C@H]2CNC(=O)[C@@H]2C(=O)Nc2ccc(F)cc2F)c1Cl [Compound 883] | 0
O=C1NC[C@H](c2cc(F)c(C(F)(F)F)c(F)c2)[C@H]1C(=O)Nc1cccc(F)c1F [Compound 838] | 50

====

- Test system: barnyardgrass (Echinochloa crus-galli)
- assayProcedure: Test A postemergence
- Type: in vivo
- runParameters: 125 g ai/ha, postemergence; visual rating after approx. 10 d, 0 to 100 scale (0 no effect, 100 complete control)

molecule | testedOn | Plant response rating, Barnyardgrass
O=C1NCC(c2ccc(OC(F)F)cc2)C1C(=O)Nc1cccc(F)c1F (stereo not shown) [Compound 561] | barnyardgrass (Echinochloa crus-galli) | 90
O=C1NCC(c2csc(Br)c2)C1C(=O)Nc1ccccc1F (stereo not shown) [Compound 648] | barnyardgrass (Echinochloa crus-galli) | 70
Cc1ccc(C2CN(C)C(=O)C2C(=O)Nc2ccccc2S(C)(=O)=O)c(F)c1 (stereo not shown) [Compound 558] | barnyardgrass (Echinochloa crus-galli) | 80
Cc1ccc(C2CNC(=O)C2C(=O)Nc2ccccc2F)cc1C(F)(F)F (racemic) [Compound 654] | barnyardgrass (Echinochloa crus-galli) | 90
N#Cc1cccc(C2CNC(=O)C2C(=O)Nc2cccc(F)c2F)c1 (stereo not shown) [Compound 621] | barnyardgrass (Echinochloa crus-galli) | 90
CCc1cccc(C2CN(C)C(=O)C2C(=O)Nc2cccc(F)c2F)c1 (stereo not shown) [Compound 568] | barnyardgrass (Echinochloa crus-galli) | 100
CN1CC(c2ccc(C(C)(F)F)cc2)C(C(=O)Nc2ccccc2S(C)(=O)=O)C1=O (stereo not shown) [Compound 692] | barnyardgrass (Echinochloa crus-galli) | 70
O=C1NCC(c2ccsc2Cl)C1C(=O)Nc1ccccc1F (stereo not shown) [Compound 599] | barnyardgrass (Echinochloa crus-galli) | 0
O=C(Nc1ccccc1F)C1C(=O)N(c2ccc([N+](=O)[O-])cc2)CC1c1cccc(C(F)(F)F)c1 (stereo not shown) [Compound 602] | barnyardgrass (Echinochloa crus-galli) | 0
O=C1NCC(c2ccsc2Cl)C1C(=O)Nc1cccc(F)c1F (stereo not shown) [Compound 600] | barnyardgrass (Echinochloa crus-galli) | 0
